The measurements presented in this section are drawn from PubChem BioAssay.

# measured-target: Follistatin-related protein 3 (Homo sapiens) (UniProt O95633)
# Sequence (O95633 whole entry, looked up): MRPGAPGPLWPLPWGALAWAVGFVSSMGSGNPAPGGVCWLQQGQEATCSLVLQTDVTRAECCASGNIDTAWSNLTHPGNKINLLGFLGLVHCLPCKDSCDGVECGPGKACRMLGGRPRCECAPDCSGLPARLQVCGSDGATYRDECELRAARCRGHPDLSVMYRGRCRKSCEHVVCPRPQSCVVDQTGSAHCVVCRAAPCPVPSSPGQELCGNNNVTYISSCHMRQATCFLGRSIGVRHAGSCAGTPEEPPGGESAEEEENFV
# assay-overview: compounds binding follistatin-related protein 3 – biochemical, small-molecule microarray, 635 nm fluorescence, primary screen (AID 1105);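 note: score merges emission near 667 nm and signal to noise per printed spot across three slides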
# condition: FSTL3 binding, higher = more signal
measured-attribute: composite z-score

State the recorded composite z-score for this entry: "C#CCN(Cc1ccccc1Br)[C@H](/C=C/c1ccccc1)[C@@H](O)Cc1ccccc1" -1.21

What would you report for CCCCCCCCCCC(O)C1C=CC2C(=O)N(c3ccccc3)C(=O)C2N1Nc1ccc(C#N)cc1 (stereo not drawn) ? 0.788

Okay, and "CN(C)C(=O)[C@]1(CCC(=O)OC(C)(C)C)N=C(c2ccc(OCCCO)cc2)O[C@@H]1c1ccccc1CN=[N+]=[N-]" ? 0.47

Another molecule to look at: "O=C(NCc1ccc(F)cc1)[C@H]1C[C@H]2C(=O)NCC(=O)N2[C@H]1c1ccc(O)cc1" 0.138

C=CCC(OC(C)=O)[C@@H]1[C@@H](N(Cc2cccc3ccccc23)C(=O)Cc2ccc(F)cc2)c2cc(OCCCO)ccc2N1C(=O)c1ccc2ccccc2c1 (stereo partly drawn) , same question. 0.565

Continuing:
Could you share which composite z-score value was measured for "CCCC#C[Si](O[C@H](CC)c1cn([C@H](C)c2ccccc2)nn1)(C(C)C)C(C)C" ? 0.47

Please do the same for "COCCOC(=O)N1C(=O)[C@@]2(c3cc(C#CC4=CCCCC4)ccc31)[C@H](c1ccccc1OCCO)N1[C@H](c3ccccc3)[C@H](c3ccccc3)OC(=O)[C@H]1[C@@H]2C(=O)NC[C@H](O)c1ccccc1" as well. 1.42

How about this molecule: "C=CC[C@@H](OC(=O)Nc1ccc(SC)cc1)c1ccc(O)c(F)c1" 0.155

###

# assay-overview: calcein-AM signal in unstimulated myeloma cells – cell-based, calcein-AM fluorescence, 48 h, PK04 Diversity Set, profiling panel (AID 1166);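 note: cells grown under basal conditions without added stimulus; test concentration not given here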
# condition: RPMI8226 myeloma viability, higher = more signal
Form field: z-score (one value per entry).
Keep it simple and answer with nothing but the number.

Solved entries:
Reported z-score for "C=CCNC(=O)[C@@H]1[C@H]2C(=O)O[C@H](c3ccccc3)[C@H](c3ccccc3)N2[C@H](c2ccc(O)cc2)[C@@]12C(=O)N(C(=O)OCCOC)c1ccc(C#CC3=CCCCC3)cc12" : what is it? -3.66

Continue with "CCCC[C@@H]1C[C@H]1[C@@H](NC(=O)c1cccs1)c1ccccc1C(F)(F)F" -1.72

# iterate: CCCCCN1CC=CC23O[C@@H]4/C=C\CCC(C)OC(=O)C4[C@H]2C(=O)N(C(CO)C(C)C)[C@@H]3C1=O (stereo not given in full) 0.216

New cases:
Give the measured z-score of "[N-]=[N+]=Nc1ccccc1C[C@]1(C(=O)N2CCOCC2)COC(c2ccc(OCCCO)cc2)=N1" . -0.314

Please give the result for "O=C1C[C@]2(c3ccc([N+](=O)[O-])cc3)C(=O)N(C3CC3)c3cc(CO)ccc3[C@H]2N1CC12CC3CC(CC(C3)C1)C2" too. -0.947

Param item: "CCOC(=O)C1=C[C@@H](c2ccccc2)N(S(=O)(=O)c2ccc(C)cc2)[C@H]1c1ccc(OC)cc1" -0.926

Consider next the molecule "CCCNC(=O)[C@@]1(Sc2ccc(C)cc2)CC(=O)N(C2Cc3ccccc3C2)[C@@H]1c1ccc(CO)cc1I" in the same way. -1.85

Similarly, COc1cc(OC)c(C(O)C2C=CC3C(=O)N(Cc4ccccc4)C(=O)C3N2n2cnnc2)cc1Br (stereo not given) ? -0.0145

Repeat with "O=C1N(Cc2ccccc2)c2ccccc2C[C@]12N=C(c1ccc(OCCCO)cc1)O[C@@H]2c1ccccc1" -3.88

Also, "CCCN1C(=O)[C@]2(Cc3ccccc31)N=C(c1ccc(OCCCO)cc1)O[C@@H]2c1ccccc1" please. -4.4

Repeat with "COc1ccc(C(=O)Nc2ccc(CN3C(=O)[C@]4(O[C@H](CC(=O)N5Cc6ccccc6C[C@H]5CO)[C@@H]([Si](C)(C)c5ccc(OC)cc5)[C@@H]4C)c4ccccc43)cc2)cc1" -0.786

Please do the same for "O=C1O[C@@H](c2ccccc2)[C@@H](c2ccccc2)N2[C@@H](c3ccc(O)cc3)[C@]3(C(=O)Nc4ccc(C#CCCO)cc43)[C@@H](C(=O)N3CCN(c4ncccn4)CC3)[C@H]12" as well. 0.1

And then "CC1=C2[C@@H](CCc3ccccc3)OB(O)C[C@@H]2[C@@H]2C(=O)N(C)C(=O)[C@@H]2C1" , what is it? 0.339

Same lookup for "C=C[C@@H](CO)N(Cc1ccc(OC)cc1)S(=O)(=O)c1ccc(Br)cc1" , please. 0.613

What do we get for "C=CC[C@@H](OC(=O)Nc1ccc(SC)cc1)c1ccc(O)c(F)c1" ? -1.75
